# Tested on: HL-60(TB) leukemia
# assayComment: NCI-60 one-dose screen, 48 h (100 = growth as untreated, 0 = no growth, -100 = all killed)
# measurementContext: 10 µM unless noted
Compounds without any hit were thinned out: in the full panel of roughly 83,000, 20% have a hit.
measuredProperty: growth (%)

1) O=c1c2sc3ncc(Cl)cc3c2nnn1-c1cccc(Cl)c1 ... 91.8
2) N#Cc1c(-c2cccc(Cl)c2)cc(-c2cccc(Cl)c2)[nH]c1=O ... -11.9
3) O=[N+]([O-])c1cnc(N2CCN(CC3CC3)CC2)nc1N1CCN(CC2CC2)CC1 ... 99.2
4) CC(O)(c1ccccc1)C(c1ccccc1)C1CCCCN1 (centres undefined) ... 78.9
5) CN(C(=O)c1ccccc1)N(C)C(=O)c1ccccc1 ... 92.8
6) C=C1C(=O)O[C@H]2[C@H]1CC/C(COC(=O)c1cc3ccccc3o1)=C\CC[C@@]1(C)O[C@@H]21 ... -2.94
7) C/C(=C\c1csc(C)n1)[C@@H]1C[C@@H]2O[C@]2(C)CCC[C@H](C)[C@H](O)[C@@H](C)C(=O)C(C)(C)[C@@H](O)CC(=O)N1 ... 0.771
8) O=C(O)c1ccc(-n2cc(/C=N/Nc3ccc(Cl)cc3Cl)c(-c3ccccc3)n2)cc1 ... -81.8
9) CNc1cccc2c1C(=O)c1cccc(N)c1C2=O ... 34.4
10) N#Cc1c(-c2ccccc2)cc(-c2ccccc2)n(CC(=O)NO)c1=O ... -56.3
11) COc1ccc(-c2nnc(COc3ccc(NC(=O)Nc4cccc(C(F)(F)F)c4)cc3F)o2)cc1 ... 4.03
12) CSc1nc(-c2cccs2)c2c(N)[nH]nc2n1 ... 85.3
13) CCN(CC)C(=O)C1=C(C)NC(=O)NC1c1ccc2c(c1)OCO2 (centres undefined) ... 101
14) COc1ccc(/C=C(\C#N)c2ccc(OC)cc2)cc1 ... 50.9
15) O=[N+]([O-])c1ccc(O)c2ncccc12 ... -4.85
16) N#CC1CCc2c(c(-c3ccc4nc(N)sc4c3)nc3ccc4[nH]ncc4c23)C1 (centres undefined) ... 34.9
17) Cc1cc2nc3c4cccc(O)c4n(CCN(C)C)c3nc2cc1C ... 29.2
18) Cc1nc(N)[nH]c(=O)c1C ... 218
19) C#CCN1C(=O)c2ccccc2N(CC#C)C12CCN(Cc1cn(CC(=O)Nc3ccccc3C(N)=O)nn1)CC2 ... 86.6
20) CC/C(=C(/c1ccc(Cl)cc1)c1ccc(OCCN2CCCCCC2)cc1)c1ccccc1 ... 49.9
21) CC(C)(C)c1ccc(/C=C/C(=O)Nc2ccc(O)cc2)cc1 ... -12.6
22) COc1cnc2c(c1)C(=O)c1c-2n(CCCNCCN2CCOCC2)c(=O)c2cc([N+](=O)[O-])ccc12 ... -15.7
23) COC(=O)c1cccc(Br)c1 ... 81.6
24) O=C(Nc1cccc(-n2cc(-c3ccncc3)c(-c3cc(O)cc(Cl)c3)n2)c1)c1ccc(N2CCOCC2)c(C(F)(F)F)c1 ... -46.4
25) Cn1c(COC(=O)N2CCCCC2)nc2c(N3CCOCC3)nc(-c3ccccc3)nc21 ... -28
26) COc1cc2c(cc1OCCCN1CCN(CCCOc3cc4c(cc3OC)C(=O)N3CCC[C@H]3C=N4)CC1)C=CC(C)(C)O2 ... 10.2
27) C[C@]12CC[C@@H]3c4ccc(OCC(=O)O)cc4CC[C@H]3[C@@H]1CCC2=O ... 84.7
28) O=C1CCc2c(sc3[nH]c(=S)n(-c4cc(C(F)(F)F)cc(C(F)(F)F)c4)c(=O)c23)C1 ... -14.2
29) CC(C)[C@H](CN)NC[C@H](C)NS(=O)(=O)c1ccc(C(C)(C)C)cc1 ... 95.4
30) FC(F)(F)c1nc2c(NCc3ccc(-c4ccccc4)cc3)cccc2[nH]1 ... 21.1
31) CCn1cc(CNc2ccc(C(=O)Nc3cc4cc(OC)c(OC)cc4c(C)n3)cc2)c(C)n1 ... 0.232
32) COc1ccccc1/C=C\C(=O)c1ccccc1 ... 48.3
33) C=CCn1c(SCC(=O)Nc2ccc(C(=O)/C=C/c3ccc(OC)cc3)cc2)nnc1-c1ccccc1 ... 88.5
34) Nc1ccc(N(O)/C=C2\C=CC=CC2=O)cc1N ... 73.2
35) Clc1ccc2nc(CI)c(CI)nc2c1 ... 2.82
36) CC(Cc1ccco1)C(=O)NC(N)=O (centres undefined) ... 87.5
37) CO[C@H](C(=O)[C@@H](O)[C@@H](C)O)[C@@H]1Cc2cc3cc(O[C@H]4C[C@@H](O[C@H]5C[C@@H](O)[C@H](O)C(C)O5)[C@H](O)C(C)O4)c(C)c(O)c3c(O)c2C(=O)[C@H]1O[C@H]1C[C@@H](O[C@H]2C[C@@H](O[C@H]3C[C@@H](OC)[C@H](O)C(C)O3)[C@@H](O)C(C)O2)C(O)(O)C(C)O1 (some centres undefined) ... 26.8
38) O=C(CCl)NCCNc1nccc(Nc2ccc(S(=O)(=O)Nc3ccccn3)cc2)n1 ... 10.2
39) NCCCn1c2c(c3cc(-c4ccn[nH]4)ccc3c1=O)C(=O)c1ccccc1-2 ... 39.6
